All figures here come from PubChem BioAssay AID1963850.

Tested on: 192522-019-R-J2-PDC complex tumor spheroid viability
measurementDescription: Anticancer human tumor 192522-019-R-J2-PDC patient-derived colon adenocarcinoma cell line growth inhibition [POLQ]
conditionContext: second compound 1 µM; first compound 0.0316 µM; stronger effect = lower value
parameterMeasured: viability, T/C (%)

CNCc1ccc(-c2[nH]c3cc(F)cc4c3c2CCNC4=O)cc1 + COC1C(OC(N)=O)C(O)C(Oc2ccc3c(O)c(NC(=O)c4ccc(O)c(CC=C(C)C)c4)c(=O)oc3c2C)OC1(C)C = 99.7
CC1COCCN1c1cc(-c2ccnn2C)c2ccnc(-c3ccn[nH]3)c2n1 (stereo unspecified) + Nc1ccc(C#CCN(C(=O)Cc2ncc(C(F)(F)F)cc2C(F)(F)F)c2ccc(F)cc2)nn1 = 95.8
O=c1[nH]cc(F)c(=O)[nH]1 + COC1C(OC(N)=O)C(O)C(Oc2ccc3c(O)c(NC(=O)c4ccc(O)c(CC=C(C)C)c4)c(=O)oc3c2C)OC1(C)C = 89.6
CCc1c2c(nc3ccc(O)cc13)-c1cc3c(c(=O)n1C2)COC(=O)[C@]3(O)CC + Cc1cccc(N(C)C(=O)C2C(O)CCN2c2nc(C)cc(C(F)(F)F)c2C#N)c1 = 71.9
Nc1ccn(C2OC(CO)C(O)C2(F)F)c(=O)n1 (stereo unspecified) + Nc1ccc(C#CCN(C(=O)Cc2ncc(C(F)(F)F)cc2C(F)(F)F)c2ccc(F)cc2)nn1 = 105
CC1COCCN1c1cc(-c2ccnn2C)c2ccnc(-c3ccn[nH]3)c2n1 (stereo unspecified) + Cc1cccc(N(C)C(=O)C2C(O)CCN2c2nc(C)cc(C(F)(F)F)c2C#N)c1 = 91.4

###

Test system: 192522-019-R-J2-PDC complex tumor spheroid viability
measurementDescription: Anticancer human tumor 192522-019-R-J2-PDC cell line growth inhibition [POLQ];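 also: spheroids exposed to drugs for seven days before reading; 100% = DMSO vehicle control viability in luminescence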
conditionContext: second compound 0.0316 µM; first compound 0.1 µM; stronger effect = lower value
Below is a list of entries, each paired with its recorded viability, T/C value.
parameterMeasured: viability, T/C (%)

Nc1ccn(C2OC(CO)C(O)C2(F)F)c(=O)n1 (stereo not drawn) + COC1C(OC(N)=O)C(O)C(Oc2ccc3c(O)c(NC(=O)c4ccc(O)c(CC=C(C)C)c4)c(=O)oc3c2C)OC1(C)C = 72.9
C=CCn1c(=O)c2cnc(Nc3ccc(N4CCN(C)CC4)cc3)nc2n1-c1cccc(C(C)(C)O)n1 + Cc1cccc(N(C)C(=O)C2C(O)CCN2c2nc(C)cc(C(F)(F)F)c2C#N)c1 = 108
COc1cccc2c1C(=O)c1c(O)c3c(c(O)c1C2=O)CC(O)(C(=O)CO)CC3OC1CC(N)C(O)C(C)O1 (stereo not drawn) + Nc1ccc(C#CCN(C(=O)Cc2ncc(C(F)(F)F)cc2C(F)(F)F)c2ccc(F)cc2)nn1 = 85

###

Test system: 192522-019-R-J2-PDC complex tumor spheroid viability
measurementDescription: Anticancer human tumor 192522-019-R-J2-PDC cell line growth inhibition [POLQ];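 also: spheroids exposed to drugs for seven days before reading; 100% = DMSO vehicle control viability in luminescence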
conditionContext: second compound 0.316 µM; first compound 0.00316 µM; stronger effect = lower value
parameterMeasured: viability, T/C (%)

COc1cccc(OCCCN)c1-c1cc(Nc2cnc(C#N)cn2)n[nH]1 + Cc1cccc(N(C)C(=O)C2C(O)CCN2c2nc(C)cc(C(F)(F)F)c2C#N)c1 = 100
CC[C@@]1(O)C(=O)OCc2c1cc1n(c2=O)Cc2cc3c(CN(C)C)c(O)ccc3nc2-1 + Nc1ccc(C#CCN(C(=O)Cc2ncc(C(F)(F)F)cc2C(F)(F)F)c2ccc(F)cc2)nn1 = 97.8
CC[C@@]1(O)C(=O)OCc2c1cc1n(c2=O)Cc2cc3c(CN(C)C)c(O)ccc3nc2-1 + Cc1cccc(N(C)C(=O)C2C(O)CCN2c2nc(C)cc(C(F)(F)F)c2C#N)c1 = 104
C=CCn1c(=O)c2cnc(Nc3ccc(N4CCN(C)CC4)cc3)nc2n1-c1cccc(C(C)(C)O)n1 + COC1C(OC(N)=O)C(O)C(Oc2ccc3c(O)c(NC(=O)c4ccc(O)c(CC=C(C)C)c4)c(=O)oc3c2C)OC1(C)C = 98.6
CCc1c2c(nc3ccc(O)cc13)-c1cc3c(c(=O)n1C2)COC(=O)[C@]3(O)CC + COC1C(OC(N)=O)C(O)C(Oc2ccc3c(O)c(NC(=O)c4ccc(O)c(CC=C(C)C)c4)c(=O)oc3c2C)OC1(C)C = 83.7
C=CCn1c(=O)c2cnc(Nc3ccc(N4CCN(C)CC4)cc3)nc2n1-c1cccc(C(C)(C)O)n1 + Nc1ccc(C#CCN(C(=O)Cc2ncc(C(F)(F)F)cc2C(F)(F)F)c2ccc(F)cc2)nn1 = 105
Cn1ncnc1[C@H]1c2n[nH]c(=O)c3cc(F)cc(c23)N[C@@H]1c1ccc(F)cc1 + COC1C(OC(N)=O)C(O)C(Oc2ccc3c(O)c(NC(=O)c4ccc(O)c(CC=C(C)C)c4)c(=O)oc3c2C)OC1(C)C = 99.4
CCc1c2c(nc3ccc(O)cc13)-c1cc3c(c(=O)n1C2)COC(=O)[C@]3(O)CC + Nc1ccc(C#CCN(C(=O)Cc2ncc(C(F)(F)F)cc2C(F)(F)F)c2ccc(F)cc2)nn1 = 99
COc1cccc(OCCCN)c1-c1cc(Nc2cnc(C#N)cn2)n[nH]1 + Nc1ccc(C#CCN(C(=O)Cc2ncc(C(F)(F)F)cc2C(F)(F)F)c2ccc(F)cc2)nn1 = 102
Cn1ncnc1[C@H]1c2n[nH]c(=O)c3cc(F)cc(c23)N[C@@H]1c1ccc(F)cc1 + Nc1ccc(C#CCN(C(=O)Cc2ncc(C(F)(F)F)cc2C(F)(F)F)c2ccc(F)cc2)nn1 = 97.9
CC[C@@]1(O)C(=O)OCc2c1cc1n(c2=O)Cc2cc3c(CN(C)C)c(O)ccc3nc2-1 + COC1C(OC(N)=O)C(O)C(Oc2ccc3c(O)c(NC(=O)c4ccc(O)c(CC=C(C)C)c4)c(=O)oc3c2C)OC1(C)C = 102
Cn1ncnc1[C@H]1c2n[nH]c(=O)c3cc(F)cc(c23)N[C@@H]1c1ccc(F)cc1 + Cc1cccc(N(C)C(=O)C2C(O)CCN2c2nc(C)cc(C(F)(F)F)c2C#N)c1 = 114
CCc1c2c(nc3ccc(O)cc13)-c1cc3c(c(=O)n1C2)COC(=O)[C@]3(O)CC + Cc1cccc(N(C)C(=O)C2C(O)CCN2c2nc(C)cc(C(F)(F)F)c2C#N)c1 = 104
COc1cccc(OCCCN)c1-c1cc(Nc2cnc(C#N)cn2)n[nH]1 + COC1C(OC(N)=O)C(O)C(Oc2ccc3c(O)c(NC(=O)c4ccc(O)c(CC=C(C)C)c4)c(=O)oc3c2C)OC1(C)C = 90
C=CCn1c(=O)c2cnc(Nc3ccc(N4CCN(C)CC4)cc3)nc2n1-c1cccc(C(C)(C)O)n1 + Cc1cccc(N(C)C(=O)C2C(O)CCN2c2nc(C)cc(C(F)(F)F)c2C#N)c1 = 111
